These data points were gathered from ChEMBL document CHEMBL1201862.

Test system: SK-MEL-5
Procedure text: NCI tumour cell line growth inhibition, 48 h
Active and inactive are the calls of the source. No stated cut-off is given here; in the data, active = GI50 up to about 1.1 µM and inactive = higher.
Permitted responses: active, inactive

Compound | Group
COC(=O)/C=C\c1ccc2c(c1)CC1(C2)Cc2ccc(/C=C/C(=O)OC)cc2C1 (stereo not given) | inactive
COc1ccc(-c2cc(=O)c3c(O)c(OC)c(OC)c(OC)c3o2)cc1OC | inactive
Nc1ccc(S(=O)(=O)C23CC4CC(CC(C4)C2)C3)cc1 | inactive

What call does the record list for `CCOC(=O)C1(C(=O)OCC)[C@@H](c2ccccc2)C2=NO[C@@H]3CCC[C@H]1[C@H]23` ?
inactive

And what about the compound CCCC(O)[C@@]1(CC)CC(C)C(O)(C2(C)C[C@H](C)[C@@H](C(CC)C(=O)C(C)[C@@H](O)[C@H](C)C3OC(O)(C(CC)C(=O)O)[C@@H](C)C(O)C3CC)O2)O1 (stereo not given in full) ?
active

And what about the compound `Cn1c2ccccc2c(=NNc2cccc(C(=O)O)c2)c2ccccc21` ?
inactive

And what about the compound `CCCC(=O)Nc1cn(COC)c(C(=O)N2C[C@H]3C[C@@]34C2=CC(=O)c2[nH]cc(C)c24)n1` ?
inactive

And what about the compound `Nc1ccc(Oc2ccc(C3(c4ccc(Oc5ccc(N)cc5)cc4)C4CC5CC(C4)CC3C5)cc2)cc1` ?
inactive

And what about the compound `CN1CCN(Cc2ccc(C(=S)Nc3ccccc3)s2)CC1` ?
inactive

And what about the compound `CO/C=C(/C(=O)OC)c1ccccc1Oc1c(F)c(F)c(F)c(F)c1F` ?
inactive

And what about the compound `O=S(=O)(/N=C1/S/C(=N\c2ccccc2)N(c2ccccc2)/C1=N/S(=O)(=O)c1ccccc1)c1ccccc1` ?
inactive

And what about the compound `COC1=CC(=O)c2c(O)ccc(O)c2C1=O` ?
active

And what about the compound `O=c1[nH]nc(Cc2ccc(Cl)cc2)n1/N=C/c1c[nH]c2ccccc12` ?
inactive

And what about the compound `NNC(=O)CC(=O)Nc1ccc(S(=O)(=O)c2ccc(NC(=O)CC(=O)NN)cc2)cc1` ?
inactive

And what about the compound CC1CCCCCC(=O)c2c(O)cc(O)cc2CC(=O)O1 (stereo not given) ?
inactive

And what about the compound NCC1OC(n2cnc3c(N)ncnc32)CC1O (stereo not given) ?
inactive

And what about the compound `CC[C@@H](C)[C@H](NC(=O)[C@H](Cc1ccccc1)NCC(F)(F)F)C(=O)OC(C)(C)C` ?
inactive

And what about the compound `C=Cc1nc(C#N)c(N)o1` ?
inactive

And what about the compound CC12CCc3ccccc3C1=NNC(=O)C2 (stereo not given) ?
inactive

And what about the compound `O=S(=O)(Nc1ccc2ccc3cccc4ccc1c2c34)c1ccccc1` ?
inactive
